Target under test: T1, human CD27 (human, UniProt P26842 21-260)
T1 construct: also called hCD27; HsCD27
Assay overview: cell ELISA on human CD27 CHOK1 cells, hIgG1
Listed binders paired with reported EC50

Binder	EC50, nM
hCD27.131A VH8VL8 huIgG1 (antibody, V domains shown) VH: EIQLVQSGAEVKKPGASVKVSCKASGYTFTNYGMNWVKQAPGQGLKWMGWINTNTGEPTYAEEFKGRFTFTLDTSISTAYMELSSLRNEDTAVYYCAREGDAMDYWGQGTTVTVSS VL: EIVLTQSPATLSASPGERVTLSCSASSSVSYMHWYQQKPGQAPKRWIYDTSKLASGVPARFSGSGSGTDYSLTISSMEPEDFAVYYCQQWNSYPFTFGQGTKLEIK	0.145
hCD27.131A VH8VL7 huIgG1 (antibody, V domains shown) VH: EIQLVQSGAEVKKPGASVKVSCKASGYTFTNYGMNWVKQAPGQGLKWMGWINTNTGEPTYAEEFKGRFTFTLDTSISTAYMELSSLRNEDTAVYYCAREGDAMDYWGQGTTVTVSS VL: EIVLTQSPATLSLSPGERATLSCSASSSVSYMHWYQQKPGQAPKRWIYDTSKLASGVPARFSGSGSGTSYSLTISSLEPEDFATYYCQQWNSYPFTFGQGTKLEIK	0.262
hCD27.131A VH7VL6 huIgG1 (antibody, V domains shown) VH: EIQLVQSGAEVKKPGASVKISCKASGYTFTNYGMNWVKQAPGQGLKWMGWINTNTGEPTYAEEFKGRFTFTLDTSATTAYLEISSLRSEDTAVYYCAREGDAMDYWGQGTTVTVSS VL: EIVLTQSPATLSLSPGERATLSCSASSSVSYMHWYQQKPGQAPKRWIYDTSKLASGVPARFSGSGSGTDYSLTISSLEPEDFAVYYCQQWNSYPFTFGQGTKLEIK	0.162
hCD27.131A VH8VL6 huIgG1 (antibody, V domains shown) VH: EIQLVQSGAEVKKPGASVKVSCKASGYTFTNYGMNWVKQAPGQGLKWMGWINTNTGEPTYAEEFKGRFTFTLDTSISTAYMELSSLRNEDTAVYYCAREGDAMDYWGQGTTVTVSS VL: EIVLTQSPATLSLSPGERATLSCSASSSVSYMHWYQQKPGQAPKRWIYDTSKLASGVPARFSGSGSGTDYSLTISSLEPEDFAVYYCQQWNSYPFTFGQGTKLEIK	0.298
hCD27.131A VH6VL7 huIgG1 (antibody, V domains shown) VH: EIQLVQSGAEVKKPGASVKVSCKASGYTFTNYGMNWVKQAPGQGLKWMGWINTNTGEPTYAEEFKGRFTFTLDTSISTAYMELSSLRSEDTAVYYCAREGDAMDYWGQGTTVTVSS VL: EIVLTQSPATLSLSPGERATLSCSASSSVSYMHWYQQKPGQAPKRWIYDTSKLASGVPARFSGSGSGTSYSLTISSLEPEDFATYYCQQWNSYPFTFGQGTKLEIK	0.13
hCD27.131A VH9VL9 huIgG1 (antibody, V domains shown) VH: EIQLVQSGAEVKKPGASVKVSCKASGYTFTNYGMNWVRQAPGQGLKWMGWINTNTGEPTYAEEFKGRFTFTLDTSASTAYMELSSLRSEDTAVYYCAREGDAMDYWGQGTTVTVSS VL: DIQLTQSPSTLSASVGDRVTITCSASSSVSYMHWYQQKPGKAPKRWIYDTSKLASGVPARFSGSGSGTDYTLTISSLQPEDFATYYCQQWNSYPFTFGQGTKLEIK	0.111
